Tested on: HCC-2998 colon
assay.remarks: NCI tumour cell line growth inhibition, 48 h
Where a SMILES comes first, the peptide text is derived from it. [ ]: non-standard residue; d: D form. The star is where a group is joined. Bn2Val = CC(C)[C@@H](C(=O)*)N(Cc1ccccc1)Cc1ccccc1; NH(3,4-diMeO-benzyl) = COc1ccc(CN*)cc1OC; NMeV = CN[C@H](C(=O)O)C(C)C; dNMeA = CN[C@H](C)C(=O)O
Use 30 µM as the dividing line for TGI, with the line itself on the True side and lower values as False.

Reference set, count: 10
>>> cat("O=C(O)/C=C/C(=O)Nc1ncn[nH]1")
"True"
>>> cat("COc1ccc(CNC(=O)[C@@H](C)N(C)C(=O)[C@@H]2CCCN2C(=O)[C@H](C(C)C)N(C)C(=O)[C@@H](NC(=O)[C@H](C(C)C)N(Cc2ccccc2)Cc2ccccc2)C(C)C)cc1OC (Bn2Val-V[NMeV]P[dNMeA]-{NH(3,4-diMeO-benzyl)})")
"False"
>>> cat("O=[n+]1c(CBr)c(CBr)n([O-])c2ccccc21")
"True"
>>> cat("COc1ccccc1NC(=O)c1ccc(/C=C/C(=O)c2nccn2C)cc1")
"False"
>>> cat("CN1CN(c2ccccc2)C2(CCN(CCCC3(c4cccs4)OCCO3)CC2)C1=O")
"True"
>>> cat("O=C1N[C@@H]2c3c(csc3Br)C(=O)[C@@H]2O1")
"True"
>>> cat("Cc1nc(Cl)c(CBr)c(Cl)n1")
"False"
>>> cat("CCn1c(=O)c2c3cc(O)ccc3oc2c2ccc(O)cc21")
"True"
>>> cat("COC(=O)c1c(OC)cccc1C(=O)O")
"True"
>>> cat("CCOC(=O)c1c(SCCN2CCCC2)n(-c2ccccc2)c(=S)n(-c2ccccc2)c1=O")
"False"

Q: Hello, I need to know if C#CC(C)(C)Oc1cc(O)c2c(=O)c3ccccc3n(C)c2c1 has measured TGI not below 30 µM. Thanks!
Result: True

Q: Hello, I need to know if C[Si](C)(C)c1ccc(CC2(Cc3ccc([Si](C)(C)C)cc3)CCNC2)cc1 has measured TGI not below 30 µM. Thanks!
Result: False

----------
System: TK-10 renal
assay.remarks: NCI tumour cell line growth inhibition, 48 h
Entries and their measured TGI follow.

# example entries with known answers
>>> experimental_value("N#CSCc1cccc(Nc2cc(=O)[nH]c(=O)[nH]2)c1")
"> 100 µM"
>>> experimental_value("COc1cc([C@@H]2c3cc4c(cc3[C@@H](NC(=O)c3cccc([N+](=O)[O-])c3)C3COC(=O)[C@@H]32)OCO4)cc(OC)c1O (stereo partly drawn)")
"9.94 µM"
>>> experimental_value("Cc1c(C(=O)/C=C/c2cccc3ccccc23)[n+](=O)c2ccccc2n1[O-]")
"34.6 µM"
>>> experimental_value("O=C1Oc2cc3c(c4cccc1c24)OCN(c1ccc(Cl)cc1)C3")
"> 100 µM"
>>> experimental_value("COc1ccc(CN2CCCC(C(=O)c3ccc(C(F)(F)F)cc3)C2)c(O)c1 (stereo not drawn)")
"88.7 µM"

// recorded TGI for CC1=C2c3ccccc3N(C(=O)/C=C/C(=O)O)[C@H]2[C@H]2C(=O)OC(=O)[C@H]2C1 : > 10 µM

// recorded TGI for CN1CCN(C(=S)N(C)C(=O)c2ccc(Cl)cc2)CC1 : > 100 µM

// recorded TGI for Clc1ccc(Cc2nc3cc4ccccc4cc3[nH]2)cc1 : 38.4 µM

// recorded TGI for COC(c1ccc(C(C)(C)C)cc1)(c1ccc(C(C)(C)C)cc1)c1cc(C(O)(c2cc(C(OC)(c3ccc(C(C)(C)C)cc3)c3ccc(C(C)(C)C)cc3)c(C)cc2C)c2cc(C(OC)(c3ccc(C(C)(C)C)cc3)c3ccc(C(C)(C)C)cc3)c(C)cc2C)c(C)cc1C : > 100 µM

// recorded TGI for Cc1cccc2c3ccc4c(c3n(C)c12)C(=O)C=CC4=O : > 100 µM

// recorded TGI for CCOC(=O)c1c(N)n(-c2ccccc2)c(=S)n(-c2ccccc2)c1=O : > 100 µM

// recorded TGI for O=C(/C=C(\[O-])c1ccccc1)CCCCCCC(=O)/C=C(\[O-])c1ccccc1.O=C(/C=C(\[O-])c1ccccc1)CCCCCCC(=O)/C=C(\[O-])c1ccccc1.O=C(/C=C(\[O-])c1ccccc1)CCCCCCC(=O)/C=C(\[O-])c1ccccc1.[La+3].[La+3] : > 50 µM

// recorded TGI for CC(=O)/C(=C/n1c(=S)sc2ccccc21)C(=O)Nc1ccccc1C : > 100 µM
